Each recorded value in this set is attributed to ChEMBL document CHEMBL4000171.

- SYSTEM UNDER TEST: UniProtKB P47712
- Sequence (P47712 whole entry): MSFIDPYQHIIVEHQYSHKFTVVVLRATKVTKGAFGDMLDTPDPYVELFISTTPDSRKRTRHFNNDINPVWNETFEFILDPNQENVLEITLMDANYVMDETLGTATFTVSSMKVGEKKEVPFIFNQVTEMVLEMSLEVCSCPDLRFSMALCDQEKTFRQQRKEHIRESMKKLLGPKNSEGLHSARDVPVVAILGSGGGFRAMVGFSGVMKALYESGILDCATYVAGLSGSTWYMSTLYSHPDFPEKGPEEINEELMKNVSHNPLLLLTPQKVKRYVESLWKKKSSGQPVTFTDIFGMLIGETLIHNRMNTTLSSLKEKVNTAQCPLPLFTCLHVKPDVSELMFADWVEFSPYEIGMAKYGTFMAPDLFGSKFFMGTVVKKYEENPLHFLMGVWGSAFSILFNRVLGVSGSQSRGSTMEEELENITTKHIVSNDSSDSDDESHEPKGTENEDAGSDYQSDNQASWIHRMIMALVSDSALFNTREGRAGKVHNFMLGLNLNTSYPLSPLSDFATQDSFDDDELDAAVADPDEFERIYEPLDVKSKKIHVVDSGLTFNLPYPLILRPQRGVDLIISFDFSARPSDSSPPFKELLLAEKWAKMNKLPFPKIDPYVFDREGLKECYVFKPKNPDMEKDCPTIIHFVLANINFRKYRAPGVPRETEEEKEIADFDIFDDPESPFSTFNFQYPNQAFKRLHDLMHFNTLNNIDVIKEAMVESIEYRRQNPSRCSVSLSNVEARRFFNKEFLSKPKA
pIC50: −log10 of the molar value.
RECORDED METRIC: pIC50

SMILES STR	SYSTEM UNDER TEST	VALUE REPORTED
CCCCCCCCc1ccc(OCC(=O)Cn2cc(C(=O)CCCCCO)c3cc(C(=O)O)ccc32)cc1	UniProtKB P47712	7.51
